Test: Toxicokinetics from toxicological studies in dogs, daily oral (gavage) administration
Assay type: in vivo, dog
Conditions: male, dog, plasma, po, 100 mg/kg, CBD 100 mg/kg oral, Day 1, males, Mean, N=5; read-out: AUC0-inf
readout: AUC0-inf
Write your answer as a measured quantity: the number, then the unit.

Which value of AUC0-inf has been reported for C=C(C)[C@@H]1CCC(C)=C[C@H]1c1c(O)cc(CCCCC)cc1O [CBD, Cannabidiol] in the records?
40500 ng·h/mL

----------
Test: Toxicokinetics from toxicological studies in dogs, daily oral (gavage) administration
Type: in vivo, dog
Conditions: female, dog, plasma, po, 100 mg/kg, CBD 100 mg/kg oral, Day 1, females, Median; read-out: CL/F
readout: CL/F (mL/min/kg)
Reply numerically in mL/min/kg, unit not repeated.

Which value of CL/F has been reported for C=C(C)[C@@H]1CCC(C)=C[C@H]1c1c(O)cc(CCCCC)cc1O [CBD, Cannabidiol] in the records?
291
